Could you please report measured Percent Effect for the items listed next?
- target-system: Arginase-2, mitochondrial (Homo sapiens)
- protocol-summary: in vitro enzyme assay to detect the production of urea directly proportional to the activity of Arginase II
- Assay type: functional
- Design: scale not given: in the data most compounds retested in dose-response had high values
- conditions-used: 33.3 µM
Numbers only, in %.

Previously resolved entries follow.
{"compound": "Cc1cnn(CC(C)NCc2csc(-c3ccsc3)n2)c1 (configuration not stated)", "quantity": "Percent Effect", "numeric-readout": -1.94}
{"compound": "CCNC(=O)c1nnn(Cc2ccccc2)c1OC", "quantity": "Percent Effect", "numeric-readout": -8.63}

Items follow; give Percent Effect for each.
1. CCNC(=O)[C@@H]1C[C@H](NC(=O)c2cncnc2C)CN1CCCSC
2. Cc1ncsc1CN1C[C@@H]2COC[C@]2(C(=O)NCC2CC2)C1
3. CNS(=O)(=O)Cc1ccc(CNC(=O)Nc2cn[nH]c2)cc1
4. CCn1cnnc1C1CCN(C(=O)c2cccc3c2ccn3C)CC1
5. Cc1nc(CN2CCCN(C(=O)C(C)OCC3CC3)CC2)cs1 (configuration not stated)
6. CCc1noc(CN2CCN(C(=O)N(C)C)CC2)n1

Response:
1. -3.59
2. 5.83
3. 1.52
4. -4.63
5. 0.215
6. 0.38

Below are 4 compounds. Give each one its Percent Effect.
1. CC(=O)N(Cc1ncc(C)o1)C1CCN(Cc2ccncc2Cl)C1 (configuration not stated)
2. CC(C)OCc1ncn2c1CN(Cc1cccs1)CCC2
3. Cc1nc(C)n(CC2CCCCN2CCC(=O)Nc2cc(C)on2)n1 (configuration not stated)
4. COc1c(CNC2CCOc3ccccc32)c(C(C)C)nn1C (configuration not stated)

Response:
1: 1.05; 2: -2.23; 3: -0.645; 4: 0.924
